Sourced from paper PMC11274943

Target: Y181C HIV-1 RT RNase H activity (Human immunodeficiency virus type 1 group M subtype B, UniProt P04585, Y768C)
Experiment: FRET-based RT RNase H cleavage assay, Y181C RT
Description: WT (wild-type) RT, and RTs harboring the NNRTI-resistant mutations K101E, K103N, Y181C, Y188C, G190A and P236L, were overexpressed and purified to homogeneity as described previously. The RT concentration was determined spectrophotometrically at 280 nm using an absorbance coefficient of 260,450 M^−1·cm^−1. […] The FRET-based RNase H cleavage assays were carried out as described previously. […] Data were analyzed using SoftMax Pro software, version 4.7.1 (Molecular Devices, San Jose, CA, USA).
Response field label: string, one of condition met (IC50 strictly below 0.6 µM) or condition not met.

# input Given O=c1c(O)ccccc1O [Compound 19619, reference compound] , is recorded IC50 strictly lower than 0.6 µM?
# output condition not met

# input Lab note: IC50 threshold 0.6 µM. Does this compound come in strictly under it? Cn1sc2ccccc2c1=O [Compound 3, 2-methylbenzo[d]isothiazol-3(2H)-one]
# output condition not met

# input hey, is IC50 for "Cc1ccc(-n2sc3ccccc3c2=O)cc1S(=O)(=O)N1CCCCC1" lower than 0.6 µM or not?
# output condition met

# input Here's an entry: "CCN(CC)S(=O)(=O)c1cccc(-n2sc3ccccc3c2=O)c1" . Is its IC50 below 0.6 µM?
# output condition met

With those in mind, consider the next compound.
# input Field: below-cutoff. Rule: recorded IC50 strictly less than 0.6 µM. Subject: "CCOC(=O)Cc1csc(-n2sc3ccccc3c2=O)n1"
# output condition met

* * *

Test system: P236L HIV-1 RT RNase H activity
Experiment: FRET-based RT RNase H cleavage assay, P236L RT
Type: biochemical
Conditions: P236L RT; fold resistance IC50 mutant/IC50 WT
Mark condition met only when Inhibition of RT RNase H Activity Fold-R stays strictly below 1. Values equal to the cut-off are condition not met.

# input Regarding Cn1sc2ccccc2c1=O [Compound 3, 2-methylbenzo[d]isothiazol-3(2H)-one] , kindly confirm whether its Inhibition of RT RNase H Activity Fold-R is beneath 1.
# output condition met

# input Inhibition of RT RNase H Activity Fold-R under 1? Item: "CCN(CC)S(=O)(=O)c1cccc(-n2sc3ccccc3c2=O)c1"
# output condition not met

# input Item "Cc1ccc(-n2sc3ccccc3c2=O)cc1S(=O)(=O)N1CCCCC1" : Inhibition of RT RNase H Activity Fold-R beneath 1, strictly?
# output condition not met

Continue with the next molecule.
# input Record "CCOC(=O)Cc1csc(-n2sc3ccccc3c2=O)n1" : is its Inhibition of RT RNase H Activity Fold-R strictly below 1?
# output condition not met

* * *

Please respond with reported Inhibition of RT RNase H Activity Fold-R for every item in the list.
Test system: K103N HIV-1 RT RNase H activity
Assay: FRET-based RT RNase H cleavage assay, K103N RT
Type: biochemical
Conditions: K103N RT; fold resistance IC50 mutant/IC50 WT
Answers are plain numbers.

// each compound listed below needs its Inhibition of RT RNase H Activity Fold-R
1. CCOC(=O)Cc1csc(-n2sc3ccccc3c2=O)n1
2. O=c1c(O)ccccc1O [Compound 19619, reference compound]
3. CCN(CC)S(=O)(=O)c1cccc(-n2sc3ccccc3c2=O)c1
4. Cn1sc2ccccc2c1=O [Compound 3, 2-methylbenzo[d]isothiazol-3(2H)-one]

# output
1: 1.8; 2: 1.1; 3: 3.2; 4: 1.0

* * *

Test system: Y181C HIV-1 RT RNase H activity
Experiment: FRET-based RT RNase H cleavage assay, Y181C RT
Type: biochemical
Conditions: Y181C RT; fold resistance IC50 mutant/IC50 WT
I'd appreciate it if you could supply Inhibition of RT RNase H Activity Fold-R values for the items below.
One number for each entry.

Past entries and their recorded results:
# input For the compound Cn1sc2ccccc2c1=O [Compound 3, 2-methylbenzo[d]isothiazol-3(2H)-one] , give its reported Inhibition of RT RNase H Activity Fold-R.
# output 0.8

# input Provide Inhibition of RT RNase H Activity Fold-R value for the following compound: "CCN(CC)S(=O)(=O)c1cccc(-n2sc3ccccc3c2=O)c1"
# output 1.0

# input Note down Inhibition of RT RNase H Activity Fold-R recorded for "Cc1ccc(-n2sc3ccccc3c2=O)cc1S(=O)(=O)N1CCCCC1"
# output 2.9

# input # return recorded Inhibition of RT RNase H Activity Fold-R for input O=c1c(O)ccccc1O [Compound 19619, reference compound]
# output 1.4

Here is the next item to consider.
# input Look up and report measured Inhibition of RT RNase H Activity Fold-R for this entry: "CCOC(=O)Cc1csc(-n2sc3ccccc3c2=O)n1"
# output 4.2

* * *

Biological target: K103N HIV-1 RT RNase H activity (Human immunodeficiency virus type 1 group M subtype B, UniProt P04585, K690N)
Assay: FRET-based RT RNase H cleavage assay, K103N RT
What pIC50 was measured for each of the following?
Numbers only, as −log10 of the molar value.

Examples with their reported pIC50 follow.
# input Report pIC50, nothing else, for this compound: O=c1c(O)ccccc1O [Compound 19619, reference compound]
# output 5.03

# input Note down pIC50 recorded for "Cc1ccc(-n2sc3ccccc3c2=O)cc1S(=O)(=O)N1CCCCC1"
# output 6.47

# input Identify pIC50 associated with the compound "CCOC(=O)Cc1csc(-n2sc3ccccc3c2=O)n1"
# output 6.62

# input Return pIC50 (reported value) for this compound: "CCN(CC)S(=O)(=O)c1cccc(-n2sc3ccccc3c2=O)c1"
# output 6.08

Let us examine a further case.
# input Specify reported pIC50 for the compound shown: Cn1sc2ccccc2c1=O [Compound 3, 2-methylbenzo[d]isothiazol-3(2H)-one]
# output 5.62

* * *

Molecular target: K103N HIV-1 RT DNA-dependent DNA polymerase activity (Human immunodeficiency virus type 1 group M subtype B, UniProt P04585, K690N)
Test: biochemical
Please respond with reported IC50 for every item in the list.
Numbers only, in µM.

// input: 3 compounds below; output: IC50 for each
1. CCN(CC)S(=O)(=O)c1cccc(-n2sc3ccccc3c2=O)c1
2. CCOC(=O)Cc1csc(-n2sc3ccccc3c2=O)n1
3. Cc1ccc(-n2sc3ccccc3c2=O)cc1S(=O)(=O)N1CCCCC1

# output
[2.1, 3.28, 3.66]

* * *

Below are IC50 values recorded for WT HIV-1 RT RNase H activity (Human immunodeficiency virus type 1 group M subtype B).

Example compounds with recorded IC50:
# input Give recorded IC50. "O=S(=O)(c1cccc(-c2cn3cc(Cl)ccc3n2)c1)N1CCOCC1"
# output > 81 µM

# input Provide measured IC50 value, entry: "CCOC(=O)Cc1csc(-n2sc3ccccc3c2=O)n1"
# output 0.13 µM

# input State its IC50: "CCN(CC)S(=O)(=O)c1cccc(-n2sc3ccccc3c2=O)c1"
# output 0.26 µM

# input Respond only with IC50 recorded for "O=c1c2ccccc2sn1-c1ccc(S(=O)(=O)N2CCCCC2)cc1"
# output 39.2 µM

I would be grateful if you could provide IC50 for each of the following entries.
1. O=S(=O)(c1cccc(-c2nc3ccccc3s2)c1)N1CCCC1
2. O=c1c2ccccc2sn1-c1ccc(S(=O)(=O)N2CCCC2)cc1
3. Cc1ccc(-c2nc3ccccc3s2)cc1S(=O)(=O)N1CCOCC1

# output
["> 81 µM", "15.4 µM", "> 81 µM"]

* * *

Molecular target: Y181C HIV-1 RT DNA-dependent DNA polymerase activity (Human immunodeficiency virus type 1 group M subtype B, UniProt P04585, Y768C)
Construct: made in house
Assay: biochemical
Format: biochemical
Kindly state IC50 for each of the entries shown.
Answers are plain numbers, in nM.

These recorded examples may help you get a feel for the data.
# input Consider the compound CCOC(=O)Cc1csc(-n2sc3ccccc3c2=O)n1 [Compound 2] and give its recorded IC50.
# output 710

# input Give IC50 for CCN(CC)S(=O)(=O)c1cccc(-n2sc3ccccc3c2=O)c1 [Compound 4]
# output 500

Continuing:
# input Look up and state reported IC50 for Cc1ccc(-n2sc3ccccc3c2=O)cc1S(=O)(=O)N1CCCCC1 [Compound 1]
# output 610

* * *

Would you kindly list pIC50 for each of these compounds?
Biological target: K101E HIV-1 RT RNase H activity (Human immunodeficiency virus type 1 group M subtype B, UniProt P04585, K688E)
Assay: FRET-based RT RNase H cleavage assay, K101E RT
Numbers only, as −log10 of the molar value.

# input Provide only the value of recorded pIC50 for CCOC(=O)Cc1csc(-n2sc3ccccc3c2=O)n1 [Compound 2]
# output 6.55

# input Tell me pIC50 reported for Cn1sc2ccccc2c1=O [Compound 3, 2-methylbenzo[d]isothiazol-3(2H)-one]
# output 5.66

# input Return pIC50 for the following compound: O=c1c(O)ccccc1O [Compound 19619, reference compound]
# output 5.09

Provide pIC50 for all items below, preserving their order.
1. CCN(CC)S(=O)(=O)c1cccc(-n2sc3ccccc3c2=O)c1 [Compound 4]
2. Cc1ccc(-n2sc3ccccc3c2=O)cc1S(=O)(=O)N1CCCCC1 [Compound 1]

# output
1: 7.05; 2: 6.60
